Molecular target: T1, human Bfl-1 (c-myc-tagged) (human, UniProt Q16548 1-151)
T1 chain: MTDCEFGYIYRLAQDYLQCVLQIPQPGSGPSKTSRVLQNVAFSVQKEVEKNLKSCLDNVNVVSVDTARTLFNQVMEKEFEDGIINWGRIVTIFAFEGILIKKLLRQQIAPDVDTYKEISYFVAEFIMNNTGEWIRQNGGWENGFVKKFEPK
Assay: anisotropy
Measured Quantity: Ki (nM)
Give bare numbers, in nM.

Exam item: Find the recorded Ki belonging to Ac-QWVREIAAGLRLAADNVNAQLER-NH2 [FS1] and report it.
Marked response: 16.4
